Below: a set of entries, each annotated with reported growth inhibition.
test: NCI Yeast Anticancer Drug Screen. Data for the sgs1 mgt1 strain (AID 161);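 further: 0% = growth of cultures given vehicle only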; settings: S. cerevisiae sgs1 mgt1 strain, at 50.0 µM, active compounds read high
About 79,000 compounds went through this panel and 15% of them were active in at least one assay; those are over-represented in the sample as a whole.

[
  {
    "compound": "O=C1CCCC/C(=C/c2ccccc2)N1",
    "unitOfMeasure": "%",
    "growth inhibition": -6.7
  },
  {
    "compound": "CCC(=O)c1c(NOC2OCC(OC(C)=O)C(OC(C)=O)C2OC(C)=O)nc(OC)n(C)c1=O (configuration not stated)",
    "unitOfMeasure": "%",
    "growth inhibition": -35.2
  },
  {
    "compound": "O=c1[nH]c2cc(Cl)ccc2nc1/C(=N\\O)C(O)c1ccc(Cl)cc1Cl (configuration not stated)",
    "unitOfMeasure": "%",
    "growth inhibition": -0.35
  },
  {
    "compound": "CCOC(=O)N/N=C(\\CC)NO",
    "unitOfMeasure": "%",
    "growth inhibition": -7.7
  },
  {
    "compound": "NCCCNCCS",
    "unitOfMeasure": "%",
    "growth inhibition": 22.6
  },
  {
    "compound": "O=C(CCC1CCCCC1=O)c1ccc(Br)cc1 (configuration not stated)",
    "unitOfMeasure": "%",
    "growth inhibition": 12.7
  },
  {
    "compound": "Cc1ccccc1-c1c(N)nc(N)nc1C(=O)Nc1nccs1",
    "unitOfMeasure": "%",
    "growth inhibition": -39.6
  },
  {
    "compound": "CCOC(=O)C1=CNC(C(=O)OCC)C1c1cccn1-c1ccc(Cl)cc1[N+](=O)[O-] (configuration not stated)",
    "unitOfMeasure": "%",
    "growth inhibition": 10.8
  },
  {
    "compound": "O=COC(Cc1ccccc1)c1ccc2c(c1)OCO2 (configuration not stated)",
    "unitOfMeasure": "%",
    "growth inhibition": 1.6
  },
  {
    "compound": "CC1(C)SC2C(C(=O)O)N=C(Cc3ccccc3)N2C1C(=O)O (configuration not stated)",
    "unitOfMeasure": "%",
    "growth inhibition": -23.4
  },
  {
    "compound": "CC(=O)Nc1ccccc1Cc1nc2ccccc2c(=O)[nH]1",
    "unitOfMeasure": "%",
    "growth inhibition": 25.1
  },
  {
    "compound": "CN(C)NC(=O)CC#N",
    "unitOfMeasure": "%",
    "growth inhibition": -4.45
  },
  {
    "compound": "CSc1ccc(OC(=O)Nc2cc(Cl)ccc2C)cc1",
    "unitOfMeasure": "%",
    "growth inhibition": 25.9
  },
  {
    "compound": "S=C(CC(=S)N1CCOCC1)N1CCOCC1",
    "unitOfMeasure": "%",
    "growth inhibition": -10.5
  },
  {
    "compound": "[Co+2].[NH-]C(Cc1ccc(O)cc1)C(=O)O.[NH-]C(Cc1ccc(O)cc1)C(=O)O (configuration not stated)",
    "unitOfMeasure": "%",
    "growth inhibition": 5.8
  },
  {
    "compound": "O=C([O-])C[n+]1ccccc1/C=C/c1ccccc1",
    "unitOfMeasure": "%",
    "growth inhibition": -23.1
  },
  {
    "compound": "C[n+]1ccc(/C=C/c2ccnc3c(O)cccc23)cc1",
    "unitOfMeasure": "%",
    "growth inhibition": -13.4
  }
]
